# assayMethodText: Mouse pharmacokinetics study (intravenous and oral)
# Type: in vivo
# reportedConditions: mouse, plasma; CD-1 mice, PO 25 mg/kg
Catalogue of AUC readings, one per entry.

Examples with answers:
> print(dat)
                                smilesentry  measurementkind      obsvalue
1  Cc1ccc(NC(=O)c2cc(C(C)(C)C#N)ccn2)cc1C1=Cc2cnc(Nc3cnn(C)c3)nc2N2CCN=C12              AUC  1.73 µg·h/mL
2  Cc1csc(Nc2ncc3c(n2)N2CCN=C2C(c2cc(NC(=O)c4cc(C(F)(F)F)ccn4)ccc2C)=C3)n1              AUC    12 µg·h/mL
3  Cc1cc(F)c(NC(=O)c2cc(C(C)(C)C#N)ccn2)cc1C1=Cc2cnc(Nc3cnn(C)c3)nc2N2CCN=C12              AUC  8.16 µg·h/mL

Which measured AUC value corresponds to Cc1ccc(NC(=O)c2cc(C(F)(F)F)ccn2)cc1C1=Cc2cnc(Nc3cncs3)nc2N2CCN=C12 ?
11.7 µg·h/mL

Which measured AUC value corresponds to CNc1ncc2c(n1)N1CCN=C1C(c1cc(NC(=O)c3cc(C(C)(C)C#N)ccn3)ccc1C)=C2 ?
6.32 µg·h/mL

GET /values?readout=AUC&item= Cc1ncc(Nc2ncc3c(n2)N2CCN=C2C(c2cc(NC(=O)c4cc(C(F)(F)F)ccn4)ccc2C)=C3)s1
16.2 µg·h/mL

Query: AUC; subject: Cc1ccc(NC(=O)c2cc(C(C)(C)F)ccn2)cc1C1=Cc2cnc(Nc3cnn(C)c3)nc2N2CCN=C12
11.3 µg·h/mL

* * *

# measurementTarget: SRC (Homo sapiens, UniProt P12931)
# Construct: purchased Carna Biosciences
# Sequence (P12931 whole entry): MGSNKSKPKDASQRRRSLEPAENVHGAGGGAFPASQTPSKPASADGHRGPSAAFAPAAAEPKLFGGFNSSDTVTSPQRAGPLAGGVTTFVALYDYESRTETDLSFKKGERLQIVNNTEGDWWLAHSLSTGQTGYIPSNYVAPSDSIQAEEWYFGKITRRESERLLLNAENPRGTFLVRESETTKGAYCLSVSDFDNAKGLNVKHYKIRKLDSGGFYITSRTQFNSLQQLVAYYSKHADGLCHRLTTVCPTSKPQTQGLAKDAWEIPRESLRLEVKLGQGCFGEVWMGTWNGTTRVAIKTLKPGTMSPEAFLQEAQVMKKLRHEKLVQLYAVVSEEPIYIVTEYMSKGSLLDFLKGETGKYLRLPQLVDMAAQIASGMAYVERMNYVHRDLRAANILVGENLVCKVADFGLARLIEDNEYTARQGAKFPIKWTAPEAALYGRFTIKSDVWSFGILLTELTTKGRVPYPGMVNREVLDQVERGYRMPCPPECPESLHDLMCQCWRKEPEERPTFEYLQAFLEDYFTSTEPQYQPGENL
# assayMethodText: In vitro kinase assay, SRC (Caliper EZ Reader conversion)
# Format: biochemical
# reportedConditions: read-out: SRC IC50
measurementKind: IC50

Solved cases below.
> print(dat)
                                smilesentry  measurementkind  obsvalue
1  CNc1ncc2c(n1)N1CCN=C1C(c1ccc(N3CCN(C)C3=O)cc1Cl)=C2             IC50   > 10 µM
2  Oc1ccncc1Nc1ncc2c(n1)N1CCCN=C1C(c1ccccc1Cl)=C2             IC50   > 10 µM

Below: the item to evaluate.
Quick one: IC50 for COc1nc(N2CCNCC2)ccc1Nc1ncc2c(n1)N1CCCN=C1C(c1ccc(Cl)cc1Cl)=C2 ?
0.1 to 10 µM

* * *

# assayMethodText: Mouse pharmacokinetics study (intravenous and oral)
# Type: in vivo
# reportedConditions: mouse, plasma; CD-1 mice, PO 25 mg/kg
measurementKind: Tmax (h)
Numeric answer only, unit h assumed.

> print(dat)
                                   compound  obsvalue
1  Cc1ccc(NC(=O)c2cc(C(C)(C)F)ccn2)cc1C1=Cc2cnc(Nc3cnn(C)c3)nc2N2CCN=C12 [Compound 196]      1.33

Quick one: Tmax for Cc1cc(F)c(NC(=O)c2cc(C(C)(C)C#N)ccn2)cc1C1=Cc2cnc(Nc3cnn(C)c3)nc2N2CCN=C12 [Compound 202] ?
1.67

# Tmax lookup, item CNc1ncc2c(n1)N1CCN=C1C(c1cc(NC(=O)c3cc(C(C)(C)C#N)ccn3)ccc1C)=C2 [Compound 163]
1.33

# query: Tmax of entry Cc1ccc(NC(=O)c2cc(C(F)(F)F)ccn2)cc1C1=Cc2cnc(Nc3ccn(C)n3)nc2N2CCN=C12 [Compound 234]
2

Consider the compound Cc1ccc(NC(=O)c2cc(C(F)(F)F)ccn2)cc1C1=Cc2cnc(Nc3cncs3)nc2N2CCN=C12 [Compound 256] and give its measured Tmax.
1.33

Could you tell me which Tmax is on file for Cc1csc(Nc2ncc3c(n2)N2CCN=C2C(c2cc(NC(=O)c4cc(C(F)(F)F)ccn4)ccc2C)=C3)n1 [Compound 233] ?
6.67

Which Tmax value belongs to Cc1cc(F)c(NC(=O)c2cc(C(F)(F)F)ccn2)cc1C1=Cc2cnc(NC3COC3)nc2N2CCN=C12 [Compound 178] ?
2
